# Tested on: human PRP (platelet rich plasma)
# EXPERIMENT_DESCRIPTION: Pharmacological test 1: inhibition of ADP-induced platelet aggregation in human PRP
# Type: cell-based
# CONDITION_INFO: Homo sapiens, Platelet, platelet aggregation, ADP 5 μM inducer
Where a name gives a salt, the structure may show the parent alone.
Mark each entry class 1 if its IC50 sits below 2000 nM, and class 0 for all others.

INPUT: IC50 strictly < 2000 nM for this compound? CN(CC(=O)c1ccc(OCC(=O)O)c(OCC(=O)O)c1)C(=O)CC1CCNCC1 [Example 37, trifluoroacetate]
OUTPUT: class 0

INPUT: IC50 strictly < 2000 nM for this compound? Cc1oc(=O)oc1COC(=O)COc1ccc(C(=O)CNC(=O)c2cc3c(s2)CCNC3)cc1OCC(=O)OCc1oc(=O)oc1C [Example 42]
OUTPUT: class 1

INPUT: IC50 strictly < 2000 nM for this compound? CCOC(=O)COc1ccc(CCNC(=O)c2cc3c(s2)CCNC3)cc1OCC(=O)OCC [Example 33]
OUTPUT: class 1

INPUT: IC50 strictly < 2000 nM for this compound? O=C(O)CCc1ccc(C(=O)CNC(=O)CCC2CCNCC2)cc1 [Example 38]
OUTPUT: class 0

INPUT: IC50 strictly < 2000 nM for this compound? O=C(O)COc1ccc(CCNCc2cc3c(s2)CCNC3)cc1OCC(=O)O [Example 40, trifluoroacetate]
OUTPUT: class 0

INPUT: IC50 strictly < 2000 nM for this compound? O=C(O)COc1ccc(C(=O)CNC(=O)c2cc3c(s2)CCCNC3)cc1OCC(=O)O [Example 30]
OUTPUT: class 1

INPUT: IC50 strictly < 2000 nM for this compound? CN(CC(=O)c1ccc(OCC(=O)O)c(OCC(=O)O)c1)C(=O)c1cc2c(s1)CCNC2 [Example 19, trifluoroacetate]
OUTPUT: class 1

INPUT: IC50 strictly < 2000 nM for this compound? O=C(O)COc1ccc(C(=O)CNC(=O)c2cc3c(s2)CCNC3)cc1 [Example 22, trifluoroacetate]
OUTPUT: class 1

INPUT: IC50 strictly < 2000 nM for this compound? O=C(COc1ccc(C(=O)CNC(=O)c2cc3c(s2)CCNC3)cc1OCC(=O)OC1CCCCC1)OC1CCCCC1 [Example 57]
OUTPUT: class 0

INPUT: IC50 strictly < 2000 nM for this compound? O=C(O)COc1ccc(C(=O)CNC(=O)c2cc3c(s2)CCNC3)nc1 [Example 44]
OUTPUT: class 1

INPUT: IC50 strictly < 2000 nM for this compound? O=C(O)COc1ccc(C(=O)CNC(=O)c2cc3c(s2)CCNCC3)cc1OCC(=O)O [Example 31, trifluoroacetate]
OUTPUT: class 1

INPUT: IC50 strictly < 2000 nM for this compound? CCOC(=O)COc1ccc(C(=O)CNC(=O)c2cc3c(s2)CCNC3)cc1OCC(=O)OCC [Example 34, trifluoroacetate]
OUTPUT: class 1

INPUT: IC50 strictly < 2000 nM for this compound? O=C(O)COc1ccc(C(=O)CNC(=O)c2sc3c(c2Cc2ccccc2)CNCC3)cc1OCC(=O)O [Example 28]
OUTPUT: class 0

INPUT: IC50 strictly < 2000 nM for this compound? O=C(O)COc1ccc(C(O)CNC(=O)c2cc3c(s2)CCNC3)cc1OCC(=O)O (centres unmarked) [Example 45]
OUTPUT: class 1

INPUT: IC50 strictly < 2000 nM for this compound? O=C(O)COc1ccc(C(=O)CNC(=O)c2cc3c(s2)CCNC3)c(OCC(=O)O)c1 [Example 25]
OUTPUT: class 1

INPUT: IC50 strictly < 2000 nM for this compound? O=C(O)COc1ccc(C(=O)CNC(=O)c2cc3c(s2)CCNC3)cc1OCC(=O)O [Example 18, trifluoroacetate]
OUTPUT: class 1

INPUT: IC50 strictly < 2000 nM for this compound? O=C(O)COc1ccc(CCNC(=O)c2cc3c(s2)CCNC3)cc1 [Example 39, trifluoroacetate]
OUTPUT: class 1

INPUT: IC50 strictly < 2000 nM for this compound? CN(CC(=O)c1ccc(OCC(=O)O)c(OCC(=O)O)c1)C(=O)[C@H]1CC[C@H](C(=N)N)CC1 [Example 58, trifluoroacetate]
OUTPUT: class 1

INPUT: IC50 strictly < 2000 nM for this compound? O=C(O)COc1ccc(C(=O)NCC(=O)c2cc3c(s2)CCNC3)cc1OCC(=O)O [Example 32]
OUTPUT: class 1

INPUT: IC50 strictly < 2000 nM for this compound? CC(=O)N(CCc1ccc(OCC(=O)O)c(OCC(=O)O)c1)Cc1cc2c(s1)CCNC2 [Example 41, trifluoroacetate]
OUTPUT: class 0
